System: Fibroblast
Test: Multiplex assay against human fibroblast
Assay type: toxicity, cell-based
Conditions: 12 h, 10 µM, compound concentration 10 uM, replicate 2
Kindly state Population Normal (%) for each of the entries shown.
Only the number, expressed in %, is required.

Q: What value of Population Normal (%) has been recorded for this entry: CSc1nc(NC2CCCC2)c([N+](=O)[O-])c(NC2CCCC2)n1
Result: 93

Q: Param item = C=CCN1C[C@H](C(=O)N(CCCN(C)C)C(=O)NCC)C[C@@H]2c3cccc4[nH]cc(c34)C[C@H]21 ; retrieve measured Population Normal (%).
Result: 94

Q: Entry COCCCN1CCC(NC(=O)c2cc(Cl)c(N)c3c2OCC3)CC1 [PRUCALOPRIDE] : reported Population Normal (%) = ?
Result: 88

Q: // Population Normal (%) lookup, key: COc1cc2nc(N3CCN(C(=O)COc4c(OC)cccc4C(C)C)CC3)nc(N)c2cc1OC.Cl.Cl
Result: 89

Q: GET /values?readout=Population Normal (%)&item= COc1cc2nc(N3CCN(C(=O)c4ccco4)CC3)nc(N)c2cc1OC.Cl [PRAZOSIN HYDROCHLORIDE]
Result: 94

Q: Given the molecule COc1c(Nc2ccc(S(C)(=O)=O)nc2C)ncnc1OC1CCN(C(=O)OC(C)C)CC1 , what is its reported Population Normal (%)?
Result: 98

Q: Reported Population Normal (%) for O=C(NCCNCC(O)COc1ccc(O)cc1)N1CCOCC1.O=C(NCCNCC(O)COc1ccc(O)cc1)N1CCOCC1.O=C(O)/C=C/C(=O)O (stereo not drawn) [XAMOTEROL FUMARATE] : what is it?
Result: 94

Q: Value lookup for Population Normal (%); key = Cl.Cl.OCCOCCN1CCN(C(c2ccccc2)c2ccc(Cl)cc2)CC1 (stereo not drawn) [HYDROXYZINE HYDROCHLORIDE]
Result: 92

---

Tested on: U2OS
Assay: Multiplex assay against U2OS
Format: toxicity, cell-based
Conditions: human, 12 h, 10 µM, compound concentration 10 uM, replicate 1
test-readout: Population Healthy Nuclei (%)
Number plus unit, in that order.

Q: // lookup Population Healthy Nuclei (%) | system=U2OS | key= CN1CCN(c2ccc(Nc3c4ccccc4nc4ccccc34)cc2)CC1.Cl.Cl.O
Result: 38%

Q: Lab note: need Population Healthy Nuclei (%) with U2OS for entry CCn1c(-c2nc3cc(C(=O)N4CCCC(N)C4)ccc3n2C)cc2ccccc21.Cl (centres undefined) , please look it up.
Result: 56%

Q: U2OS / Population Healthy Nuclei (%) / CC(C)C[C@H](CO)Nc1nc(S[C@@H](C)c2ccccc2)nc2nc(N)sc12 [AZD-8797] : value?
Result: 56%

Q: Lab request: please report Population Healthy Nuclei (%) under test system U2OS for Cc1c(Cc2ccc3ccccc3n2)c2cc(F)ccc2n1CC(=O)O [TIMAPIPRANT]
Result: 62%

Q: For U2OS, provide Population Healthy Nuclei (%) of COC(c1ccccc1)(c1ccccc1)[C@H](Oc1nc(C)cc(C)n1)C(=O)O [AMBRISENTAN] please.
Result: 63%

Q: Form entry - test system: U2OS; read-out: Population Healthy Nuclei (%); molecule: Cn1cc(C(=O)OCC2CCN(CCNS(C)(=O)=O)CC2)c2ccccc21
Result: 58%

Q: Value wanted: Population Healthy Nuclei (%) (U2OS) of entry O=c1ccc2ccc(OCCCCN3CCN(c4cccc5sccc45)CC3)cc2[nH]1 [BREXPIPRAZOLE]
Result: 27%

Q: Field: Population Healthy Nuclei (%) (U2OS). Entry: CCCCC[C@H](O)/C=C/[C@H]1[C@H](O)CC(=O)[C@@H]1CCCCCCC(=O)O [ALPROSTADIL]
Result: 69%

Q: Any idea what Population Healthy Nuclei (%) came out for Nc1nc(CC(=O)Nc2ccc(CCNC[C@H](O)c3ccccc3)cc2)cs1 [MIRABEGRON] on U2OS?
Result: 70%

---

Provide the recorded Population Mitotic Cells (%) for the entries that follow.
Test system: Fibroblast
Assay: Multiplex assay against human fibroblast
Format: toxicity, cell-based
Conditions: 24 h, 10 µM, compound concentration 10 uM, replicate 1
Non-standard residues stand in square brackets, D forms with d. Residues, ends and D or L forms follow the SMILES beside them.
Give the value in % but do not write % after it.

Q: So what does the record say about Population Mitotic Cells (%) for Cc1cc(NC(=O)NCCN2CCC(O)(Cc3ccccc3)CC2)c2ccccc2n1 [PALOSURAN] ?
Result: 57

Q: Given the compound OCCCNc1cc(-c2ccnc(Nc3cccc(Cl)c3)n2)ccn1 , what is its reported Population Mitotic Cells (%)?
Result: 20

Q: Value lookup for Population Mitotic Cells (%); key = CCCCC[C@H](O)/C=C/[C@H]1[C@H](O)CC(=O)[C@@H]1CCCCCCC(=O)O [ALPROSTADIL]
Result: 36

Q: Endpoint output: Population Mitotic Cells (%) of O=C(Nc1cc(-c2ccccc2)nn1-c1ccccc1F)c1ccc([N+](=O)[O-])cc1 . Value?
Result: 73

Q: Fill in the blank: the reported Population Mitotic Cells (%) of COc1cc(OC2CCN(C(C)=O)CC2)ccc1C(=O)N1CCC(N2C(=O)OCc3ccccc32)CC1 is ____.
Result: 63

Q: Recorded Population Mitotic Cells (%) of CC(C)(C)c1ccc(CSc2cnn(C(C)(C)C)c(=O)c2Cl)cc1 [PYRIDABEN] , please.
Result: 43

Q: Fill blank: measured Population Mitotic Cells (%) of the compound C[C@H](NC(=O)CNC(=O)c1cccc(Cl)c1)c1ccccc1 is ____.
Result: 48

Q: // Population Mitotic Cells (%) lookup, key: C[C@@H]1CC(=O)Nc2cccc(-c3ccc4c(c3)c(-c3cnn(C)c3)nn4C)c2N1
Result: 25

Q: So what does the record say about Population Mitotic Cells (%) for CCCCCCNC(=O)Nc1ccc(S(=O)(=O)Nc2ccc(CCNC[C@H](O)COc3ccc(O)cc3)cc2)cc1 [L-755507] ?
Result: 27

Q: Which Population Mitotic Cells (%) value is on record for O=C(NCCNCC(O)COc1ccc(O)cc1)N1CCOCC1.O=C(NCCNCC(O)COc1ccc(O)cc1)N1CCOCC1.O=C(O)/C=C/C(=O)O (stereo not drawn) [XAMOTEROL FUMARATE] ?
Result: 37

Q: Which measured Population Mitotic Cells (%) value corresponds to COCCCN1CCC(NC(=O)c2cc(Cl)c(N)c3c2OCC3)CC1 [PRUCALOPRIDE] ?
Result: 36

Q: Population Mitotic Cells (%) for CN1CCN2c3ccccc3Cc3ccccc3C2C1.Cl (stereo not drawn) [MIANSERIN HYDROCHLORIDE] ?
Result: 38

Q: Which value of Population Mitotic Cells (%) has been reported for Nc1nc(-c2ccco2)c2cnn(Cc3ccccc3F)c2n1 in the records?
Result: 29

Q: Bench note: what Population Mitotic Cells (%) did COc1cc2nc(N3CCN(C(=O)c4ccco4)CC3)nc(N)c2cc1OC.Cl [PRAZOSIN HYDROCHLORIDE] show?
Result: 53

Q: Entry Cc1sc2c(c1C)C(c1ccc(Cl)cc1)=N[C@H](CC(=O)OC(C)(C)C)c1nnc(C)n1-2 has what Population Mitotic Cells (%)?
Result: 25

Q: # input compound: Cc1cc(-c2ccc3c(c2)CC[C@H]3N2CC3(CCN(C(=O)Cc4cn5cc(C)sc5n4)CC3)C2)ncn1 [PF-5190457] ; wanted: its Population Mitotic Cells (%)
Result: 55

Q: Quick one: Population Mitotic Cells (%) for CC(C)C[C@@H]1NC(=O)[C@@H](C(C)C)NC(=O)[C@@H]2CCCN2C(=O)[C@@H](CC(=O)O)NC(=O)[C@@H](Cc2c[nH]c3ccccc23)NC1=O [BQ-123] (cyclo(L[dW][dD]P[dV])) ?
Result: 50

Q: Need Population Mitotic Cells (%), item COC(c1ccccc1)(c1ccccc1)[C@H](Oc1nc(C)cc(C)n1)C(=O)O [AMBRISENTAN]
Result: 30

Q: I am curious: what Population Mitotic Cells (%) value has been reported for CCC(=O)OCC(=O)[C@@]1(OC(=O)CC)[C@@H](C)C[C@H]2[C@@H]3CCC4=CC(=O)C=C[C@]4(C)[C@@]3(Cl)[C@@H](O)C[C@@]21C [BECLOMETHASONE DIPROPIONATE] ?
Result: 59

Q: Look up Population Mitotic Cells (%) for this compound: Cc1cc(=O)n(C)c2cc(N3C(=O)CC[C@H](NS(=O)(=O)CC(C)C)[C@H]3c3ccc(Cl)cc3)ccc12
Result: 56

Q: Value lookup for Population Mitotic Cells (%); key = CCn1c(-c2nc3cc(C(=O)N4CCCC(N)C4)ccc3n2C)cc2ccccc21.Cl (stereo not drawn)
Result: 29

Q: Give the measured Population Mitotic Cells (%) of O=c1ccc2ccc(OCCCCN3CCN(c4cccc5sccc45)CC3)cc2[nH]1 [BREXPIPRAZOLE] .
Result: 41

Q: Record request: Population Mitotic Cells (%) value, item CC(F)(F)CN1CCOc2c(nn(-c3ccccc3Cl)c2-c2ccc(Cl)cc2)C1=O
Result: 66

Q: Population Mitotic Cells (%) for COCCn1c(C)c(C)s/c1=N\C(=O)C1C(C)(C)C1(C)C ?
Result: 31

Q: // query Population Mitotic Cells (%) value for entry CN1CCN(c2ccc(Nc3c4ccccc4nc4ccccc34)cc2)CC1.Cl.Cl.O
Result: 22

Q: // returns reported Population Mitotic Cells (%) for input CN1C[C@H](C(=O)N[C@]2(C)O[C@@]3(O)[C@@H]4CCCN4C(=O)[C@H](Cc4ccccc4)N3C2=O)C[C@@H]2c3cccc4[nH]cc(c34)C[C@H]21.CS(=O)(=O)O [DIHYDROERGOTAMINE MESYLATE]
Result: 44

Q: I have this compound here, Nc1nc(CC(=O)Nc2ccc(CCNC[C@H](O)c3ccccc3)cc2)cs1 [MIRABEGRON] , and I need its recorded Population Mitotic Cells (%).
Result: 46

Q: For the compound shown here, COc1cc(C(=O)N2CC[C@@H](O)[C@@H](N)C2)cc2nc(-c3cc4ccccc4n3CC3CC3)n(C)c12.Cl , give the reported Population Mitotic Cells (%).
Result: 26

Q: Given the compound Cn1cc(C(=O)OCC2CCN(CCNS(C)(=O)=O)CC2)c2ccccc21 , what is its reported Population Mitotic Cells (%)?
Result: 20

Q: Suppose we examine the compound O=c1nc2[nH]c3ccccc3nc-2c(=O)[nH]1 [ALLOXAZINE] ; what Population Mitotic Cells (%) value has been reported?
Result: 52

Q: Consider the compound O=C(O)CCC/C=C\CC1C(O)CC(O)C1/C=C/C(O)COc1cccc(Cl)c1 (stereo not drawn) [CLOPROSTENOL] and give its measured Population Mitotic Cells (%).
Result: 58

Q: Recorded Population Mitotic Cells (%) for COc1cc(Nc2ncc3c(n2)-c2ccc(Cl)cc2C(c2c(F)cccc2OC)=NC3)ccc1C(=O)O [ALISERTIB] , please?
Result: 35

Q: Looking for the measured Population Mitotic Cells (%) of CC(C)C[C@H](CO)Nc1nc(S[C@@H](C)c2ccccc2)nc2nc(N)sc12 [AZD-8797] , can you help?
Result: 42
